These data points were gathered from the supplement of paper PMC10567573.

B1: KCNG1 (parent)
chain: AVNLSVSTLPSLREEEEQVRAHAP

- Variants of: B1
- assay_method_text: protein stability index of a GFP-peptide fusion (GPS, HEK-293T) (PSI 1-6); higher = more stable;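 also: lentivirally expressed fusions sorted by FACS into six bins by GFP to DsRed ratio, PSI derived from sequencing read proportions per bin multiplied by bin number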
- conditions: c terminus: a fixed tail appended
attribute_measured: protein stability index
Lab note: jot the number down without any unit.

Query: protein stability index; subject: AVSLSVSTLPSLREEEEQVRAHAP
4.87

Field request: protein stability index | item: AVNLSVSTLPSLREEEEQVRAHVP
5.07

What measured protein stability index goes with AVNLSVSTLPSLREPEEQVRAHAP ?
4.93

# input variant: AVNLSVSPLPSLREEEEQVRAHAP ; wanted: its protein stability index
5.14

So what does the record say about protein stability index for AVNLSVSTLPSLREEEEPVRAHAP ?
5.04

Find the recorded protein stability index belonging to AVNLSVSTLPSLREEEEQVRAHKP and report it.
5.1

Query: protein stability index; subject: AVNRSVSTLPSLREEEEQVRAHAP
5.03

protein stability index lookup needed for AVNTSVSTLPSLREEEEQVRAHAP , thanks.
4.9

For the variant shown here, PVNLSVSTLPSLREEEEQVRAHAP , give the reported protein stability index.
5.12

Which protein stability index reading was recorded for the variant AVNLSRSTLPSLREEEEQVRAHAP ?
5.02

What value of measured protein stability index is listed for AVNLSVSQLPSLREEEEQVRAHAP ?
5.07

Which protein stability index value is on record for AVNLSVSTLPSLREEEEQVRADAP ?
5.01

Record request: protein stability index value, item AVNLSVRTLPSLREEEEQVRAHAP
4.93

Report protein stability index for AVNLSVSTLPSLREEEEQNRAHAP please.
5.09

Entry AVNLSVSTLPSLREEEETVRAHAP has what protein stability index?
4.99

protein stability index for AVNLSVSTLPHLREEEEQVRAHAP ?
5.07

Find the recorded protein stability index belonging to AVNLSVNTLPSLREEEEQVRAHAP and report it.
5.02

Name the recorded protein stability index for AVNLSVSTLPSLQEEEEQVRAHAP .
4.91

Consider the variant shown here: AVNLSVSTLPQLREEEEQVRAHAP What is its recorded protein stability index?
5.01

For AVNLSVSTLPNLREEEEQVRAHAP , what is its reported protein stability index?
4.95

Entry AVNLSVSTLPSLREEEEQVRRHAP has what protein stability index?
4.99
